These data points were gathered from patent US11014917B2.

Target: UniProt P13866
Sequence (P13866 whole entry): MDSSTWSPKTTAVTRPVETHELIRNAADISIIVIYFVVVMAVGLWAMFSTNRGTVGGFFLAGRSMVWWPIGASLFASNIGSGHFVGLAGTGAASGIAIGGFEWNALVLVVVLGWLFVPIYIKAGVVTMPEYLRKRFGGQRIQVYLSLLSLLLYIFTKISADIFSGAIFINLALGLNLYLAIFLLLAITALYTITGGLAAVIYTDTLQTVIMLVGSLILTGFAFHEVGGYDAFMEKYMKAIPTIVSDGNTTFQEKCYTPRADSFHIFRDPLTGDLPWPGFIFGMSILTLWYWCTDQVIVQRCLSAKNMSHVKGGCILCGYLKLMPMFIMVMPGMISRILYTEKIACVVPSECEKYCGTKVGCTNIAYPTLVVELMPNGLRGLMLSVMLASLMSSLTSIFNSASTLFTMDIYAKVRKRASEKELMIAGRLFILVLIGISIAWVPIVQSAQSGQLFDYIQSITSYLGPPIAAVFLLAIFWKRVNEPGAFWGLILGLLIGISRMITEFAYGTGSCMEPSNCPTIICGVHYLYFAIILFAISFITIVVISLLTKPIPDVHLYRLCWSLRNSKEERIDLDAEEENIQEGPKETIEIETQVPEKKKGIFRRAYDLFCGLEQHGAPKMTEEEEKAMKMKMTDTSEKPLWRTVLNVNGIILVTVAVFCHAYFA
Test: SGLT1 assay: Na-dependent 14C-AMG uptake in CHO-K1 cells stably expressing human SGLT1
Conditions: average if tested more than once
pIC50: −log10 of the molar value.
metric-name: pIC50

# annotated cases, reported pIC50 shown
{"columns": ["molecule", "pIC50"],
 "data": [
  ["COc1cc(O)c(C2OC(C(C)O)C(F)C(O)C2O)cc1Cc1cc2ccccc2s1 (single isomer, unassigned) [Compound 52]", 7.82],
  ["COc1cc(O)c(C2OC(C(C)O)C(F)C(O)C2O)cc1Cc1cc2ccccc2s1 (single isomer, unassigned) [Compound 53]", 6.98]
]}

1: COc1cc(OC)c(C2OC(C(C)O)C(F)C(O)C2O)cc1Cc1cc2ccccc2s1 (single isomer, unassigned)
2: OC[C@H]1O[C@@H](c2cc3c(c(Cc4ccc5c(c4)SCCO5)c2)OCC3)[C@H](O)[C@@H](O)[C@@H]1F
3: Cc1cc(O)c([C@@H]2O[C@H](CO)[C@@H](F)[C@H](O)[C@H]2O)cc1Cc1cc2c(s1)CCN(C(=O)C1CCCC1)C2
Order the records, beginning with the lowest pIC50 and ending with the highest. # the answer lists labels in the order requested 2, 3, 1
